B1: EHEE_rd3_0053 (parent)
chain: TYTFKVDNKDQAKKAAKWAKKLGLSFQIEKHGDTFKITVQ

Variants of: B1
experiment-description: folding stability dG (cDNA display proteolysis); higher = more stable
protocol-conditions: PBS, room temperature
quantity-name: folding stability dG (kcal/mol)
Number in kcal/mol, nothing else.

Use these answered entries as a reference point.
>>> assay_result("T38N")
1.09
>>> assay_result("D33Q")
2.16
>>> assay_result("S25R")
2.4

Request: Which measured folding stability dG value corresponds to K9Q ?
Result: 2.26

Request: Sample G32K — what was its folding stability dG?
Result: 1.77

Request: What value of measured folding stability dG is listed for K5P ?
Result: 1.7

Request: Which folding stability dG value belongs to S25M ?
Result: 2.29

Request: # lookup: folding stability dG of F35G
Result: -0.794

Request: What does the data say about its folding stability dG? Entry: L24F
Result: 2.2

Request: Which measured folding stability dG value corresponds to N8E ?
Result: 1.16
